- experiment_description: recombinant barcode read abundance after kanamycin selection (control-corrected) (log10(CPM+1)); higher = more efficient recombination; sequences stand for … in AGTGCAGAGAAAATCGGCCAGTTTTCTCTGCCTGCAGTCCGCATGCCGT…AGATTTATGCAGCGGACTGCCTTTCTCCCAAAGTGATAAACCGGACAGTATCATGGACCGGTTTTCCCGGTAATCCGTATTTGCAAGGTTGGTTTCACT; site = the 11-nt target;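 further: IS621 recombinase and bridge RNA in Escherichia coli cells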
Kind request: treat 0.2 as inclusive, so recombinant barcode read abundance (log10) at 0.2 or higher is met, anything lower is not met.

Known results for sequences:
monomer_sequence	category_label
GGTGACCCTTGGGTTCTAACCTGTTGCGG (site GGTCACCCTCC)	met
TGGAGTACTTGGGTTCTAACCTGTTGCCT (site TGGCGTACTAG)	not met

[Q] Assess whether reported recombinant barcode read abundance (log10) for GATAGGCCTTGGGTTCTAACCTGTTGCCT (site GTTAGGCCTAG) sits at 0.2 or higher.
[A] not met

[Q] Could you please find out whether CAGGCGACTTGGGTTCTAACCTGTTGCCT (site CAGGCGTCTAG) has recombinant barcode read abundance (log10) that meets 0.2 or exceeds it?
[A] met

[Q] Answer whether recombinant barcode read abundance (log10) of GTCGTCTCTTGGGTTCTAACCTGTTGCCT (site GTCGTCGCTAG) is greater than or equal to 0.2.
[A] not met
